Cited source: patent US9624229B2

# study.system: Ba/F3 V617F cells (Homo sapiens, UniProt O60674, V617F, cells depend on it)
# Sequence (O60674 whole entry V617F): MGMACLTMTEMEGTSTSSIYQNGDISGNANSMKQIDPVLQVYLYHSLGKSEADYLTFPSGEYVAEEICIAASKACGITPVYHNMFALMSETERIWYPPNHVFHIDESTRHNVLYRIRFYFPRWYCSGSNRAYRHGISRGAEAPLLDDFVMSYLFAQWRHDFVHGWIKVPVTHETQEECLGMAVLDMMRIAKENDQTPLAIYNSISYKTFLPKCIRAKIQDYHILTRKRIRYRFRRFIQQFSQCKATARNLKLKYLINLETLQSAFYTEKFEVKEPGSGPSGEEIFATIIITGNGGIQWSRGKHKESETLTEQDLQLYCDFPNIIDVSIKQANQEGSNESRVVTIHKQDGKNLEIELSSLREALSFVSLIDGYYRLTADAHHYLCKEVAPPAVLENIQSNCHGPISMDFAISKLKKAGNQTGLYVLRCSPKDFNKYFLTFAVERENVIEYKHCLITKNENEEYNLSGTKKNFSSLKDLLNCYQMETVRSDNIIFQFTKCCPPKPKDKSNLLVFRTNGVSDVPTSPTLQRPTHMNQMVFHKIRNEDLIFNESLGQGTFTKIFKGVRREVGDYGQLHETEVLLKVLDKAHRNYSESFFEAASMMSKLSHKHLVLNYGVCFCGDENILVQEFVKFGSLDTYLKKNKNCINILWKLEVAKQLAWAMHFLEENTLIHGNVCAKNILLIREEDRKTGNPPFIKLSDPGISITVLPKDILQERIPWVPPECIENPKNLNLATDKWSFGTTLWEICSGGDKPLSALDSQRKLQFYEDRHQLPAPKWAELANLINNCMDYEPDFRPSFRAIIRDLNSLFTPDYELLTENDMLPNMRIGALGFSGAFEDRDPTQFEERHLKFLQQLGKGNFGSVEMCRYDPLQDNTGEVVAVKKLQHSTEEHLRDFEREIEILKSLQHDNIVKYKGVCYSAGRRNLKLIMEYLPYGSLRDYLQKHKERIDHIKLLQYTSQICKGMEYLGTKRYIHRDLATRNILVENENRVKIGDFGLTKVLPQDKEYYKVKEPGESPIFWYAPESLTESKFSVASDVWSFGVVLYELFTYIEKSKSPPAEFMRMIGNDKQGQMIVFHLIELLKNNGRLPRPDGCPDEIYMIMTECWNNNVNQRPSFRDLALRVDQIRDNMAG
# procedure.summary: Proliferation assay (Cell Titer-Glo, 72 h) utilizing Ba/F3 V617F cells
# Format: cell-based, mouse
# test.parameters: Ba/F3 V617F cells, proliferation, level of activity to inhibit JAK2, read-out: IC50 (the source's name)
# Method: Ba/F3 V617F cells are maintained and plated in RPMI with 10% FBS. Plating density for these cells is 1×10^5 cells/mL. The cells were resuspended in a corresponding medium at a required cell density (see above). 100μ of cell suspension was added to each well of a flat bottom 96 well white plate. […] Proliferation was measured using Cell Titer-Glo. […] The Luminescence was read on the Wallac Plate Reader. […]
The reader will find reported GI50 values listed item by item below.
readout.name: GI50

Cc1cc(Nc2nccc(-c3ccc(N4CCOCC4)nc3)n2)ccc1N1CC2CCC(C1)N2C [compound 166]: < 1000 nM
Cc1cc(Nc2ncc(C)c(-c3ccc(N(C)C)nc3)n2)ccc1N1C[C@@H]2C[C@H]1CN2C [compound 2]: < 1000 nM
Cc1cc(Nc2nccc(-c3cnc4c(c3)OC(C)(C)C(=O)N4)n2)ccc1N1C[C@H]2C[C@@H]1CN2C [compound 71]: < 1000 nM
CN1C[C@@H]2C[C@H]1CN2c1ccc(Nc2nccc(-c3ccc(NC(=O)CN4CCOCC4)nc3)n2)cc1 [compound 142]: 1000 to 10000 nM
Cc1cc(Nc2nccc(-c3cnn(-c4cccc(Cl)c4)c3)n2)ccc1N1C[C@@H]2C[C@H]1CN2C [compound 106]: 1000 to 10000 nM
CCCNc1ncc(-c2ccnc(Nc3ccc(N4C[C@@H]5C[C@H]4CN5C)c(F)c3)n2)cn1 [compound 93]: < 1000 nM
CN1C[C@@H]2C[C@H]1CN2c1ccc(Nc2nccc(-c3ccc(N4CCOCC4)nc3)n2)cc1C#N [compound 118]: < 1000 nM
Cc1cc(Nc2nccc(-c3ccc(C(C)(C)C)cc3)n2)ccc1N1C[C@@H]2C[C@H]1CN2C [compound 46]: < 1000 nM
CN1C[C@@H]2C[C@H]1CN2c1ccc(Nc2nccc(-c3ccc(NS(C)(=O)=O)nc3)n2)cc1F [compound 153]: 1000 to 10000 nM
Cc1cc(Nc2nccc(-c3cnc4c(c3)OC(C)(C)C(=O)N4)n2)ccc1N1C[C@@H]2C[C@H]1CO2 [compound 27]: < 1000 nM
CN1C[C@@H]2C[C@H]1CN2c1ccc(Nc2nccc(-c3ccc(NC(=O)CN4CCOCC4)nc3)n2)cc1F [compound 143]: 1000 to 10000 nM
CN1CCOc2cc(-c3ccnc(Nc4ccc(N5C[C@@H]6C[C@H]5CN6C)c(F)c4)n3)cnc21 [compound 9]: < 1000 nM
Cc1cc(Nc2nccc(-c3cnc(N4CCOCC4)cn3)n2)ccc1N1C[C@@H]2C[C@H]1CN2C [compound 178]: 1000 to 10000 nM
Cc1cc(Nc2nccc(-c3cnc(N4CCOCC4)c(C)c3)n2)ccc1N1C[C@@H]2C[C@H]1CN2C [compound 60]: < 1000 nM
CC(=O)N1C[C@@H]2C[C@H]1CN2c1ccc(Nc2nccc(-c3ccc(N4CCOCC4)nc3)n2)cc1C#N [compound 116]: < 1000 nM
Cc1cc(Nc2nccc(-c3cncc(C#N)c3)n2)ccc1N1C[C@@H]2C[C@H]1CN2C [compound 114]: 1000 to 10000 nM
Cc1cc(Nc2nccc(-c3ccc(NS(C)(=O)=O)cc3)n2)ccc1N1C[C@@H]2C[C@H]1CN2C [compound 136]: < 1000 nM
Cc1cc(Nc2nccc(-c3ccc4nccn4c3)n2)ccc1N1CCN2CCC1C2 (centres unmarked) [compound 123]: < 1000 nM
Cc1cc(Nc2ncc(F)c(-c3ccc(N(C)C)nc3)n2)ccc1N1C[C@@H]2C[C@H]1CN2C [compound 4]: < 1000 nM
CN1C[C@@H]2C[C@H]1CN2c1ccc(Nc2nccc(-c3ccc(NCCN4CCOCC4)nc3)n2)cc1 [compound 69]: 1000 to 10000 nM
Cc1cc(Nc2nccc(-c3ccc(NCc4ccccc4)nc3)n2)ccc1N1C[C@@H]2C[C@H]1CN2C [compound 80]: < 1000 nM
CN1C2CCC1CN(c1ccc(Nc3nccc(-c4ccc(N)nc4)n3)cc1)C2 [compound 158]: < 1000 nM
Cc1cnc(Nc2ccc(N3C[C@@H]4C[C@H]3CN4C)c(F)c2)nc1-c1ccc(N(C)C)nc1 [compound 6]: < 1000 nM
